Some compounds, each annotated with its measured Ki.
target: human α2δ-1 subunit of Cav2.2 calcium channel (Homo sapiens (Human)); assay: Binding assay to human α2δ-1 subunit of Cav2.2 calcium channel ([3H]-Gabapentin); details: Table 1, human α2δ-1 enriched membranes, read-out: Ki (nM) alpha2delta Hum
Sequence (P54289 25-1103): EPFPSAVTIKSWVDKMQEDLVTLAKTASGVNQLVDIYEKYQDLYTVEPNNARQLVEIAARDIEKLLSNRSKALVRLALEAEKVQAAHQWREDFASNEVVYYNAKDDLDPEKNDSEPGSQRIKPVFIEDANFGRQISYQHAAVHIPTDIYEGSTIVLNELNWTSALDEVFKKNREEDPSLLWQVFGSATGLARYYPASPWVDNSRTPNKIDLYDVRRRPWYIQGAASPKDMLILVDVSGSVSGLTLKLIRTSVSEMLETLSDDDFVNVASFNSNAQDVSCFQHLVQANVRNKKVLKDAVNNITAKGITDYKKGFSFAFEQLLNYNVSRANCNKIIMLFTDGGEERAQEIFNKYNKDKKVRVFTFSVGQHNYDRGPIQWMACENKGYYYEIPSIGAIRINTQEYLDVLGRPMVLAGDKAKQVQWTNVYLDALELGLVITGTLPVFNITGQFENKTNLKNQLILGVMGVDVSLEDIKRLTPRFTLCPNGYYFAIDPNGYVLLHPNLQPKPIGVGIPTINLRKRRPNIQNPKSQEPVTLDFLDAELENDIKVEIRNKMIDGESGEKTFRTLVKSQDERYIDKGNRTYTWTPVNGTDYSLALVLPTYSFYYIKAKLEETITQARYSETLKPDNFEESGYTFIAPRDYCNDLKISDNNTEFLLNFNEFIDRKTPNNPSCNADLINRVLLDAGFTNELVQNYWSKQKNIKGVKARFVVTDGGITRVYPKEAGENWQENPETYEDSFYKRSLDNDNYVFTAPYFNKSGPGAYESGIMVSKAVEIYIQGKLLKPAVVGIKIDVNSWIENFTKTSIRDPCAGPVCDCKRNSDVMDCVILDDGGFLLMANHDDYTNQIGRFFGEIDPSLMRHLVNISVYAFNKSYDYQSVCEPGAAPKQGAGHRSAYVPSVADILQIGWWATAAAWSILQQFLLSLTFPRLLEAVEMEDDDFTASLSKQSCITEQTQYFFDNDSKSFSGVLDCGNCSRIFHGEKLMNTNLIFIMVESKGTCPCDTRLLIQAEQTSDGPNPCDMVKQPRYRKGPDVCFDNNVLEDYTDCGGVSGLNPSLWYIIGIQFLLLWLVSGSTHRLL

- compound: "CNCC[C@@H](Oc1cccc2ncccc12)c1ccc(Cl)s1"
  assaySystem: "human α2δ-1 subunit of Cav2.2 calcium channel (Homo sapiens (Human))"
  Ki: "< 100 nM"
- compound: "CNCC[C@H](Oc1ccc2cnccc2c1)c1cccs1"
  assaySystem: "human α2δ-1 subunit of Cav2.2 calcium channel (Homo sapiens (Human))"
  Ki: "500 to 3000 nM"
- compound: "CNCCC(Oc1cccc2cnccc12)c1ccncc1 (stereo not shown)"
  assaySystem: "human α2δ-1 subunit of Cav2.2 calcium channel (Homo sapiens (Human))"
  Ki: "≥ 3000 nM"
- compound: "CNCC[C@@H](Oc1cccc2ccncc12)c1ccc(F)s1"
  assaySystem: "human α2δ-1 subunit of Cav2.2 calcium channel (Homo sapiens (Human))"
  Ki: "100 to 500 nM"
- compound: "CNCCC(Oc1ccc2cccnc2c1)c1cccs1 (stereo not shown)"
  assaySystem: "human α2δ-1 subunit of Cav2.2 calcium channel (Homo sapiens (Human))"
  Ki: "500 to 3000 nM"
- compound: "CNCC[C@H](Oc1cnc2ccccc2c1)c1cccs1"
  assaySystem: "human α2δ-1 subunit of Cav2.2 calcium channel (Homo sapiens (Human))"
  Ki: "≥ 3000 nM"

Query: Find the recorded Ki belonging to CNCC[C@@H](Oc1cccc2cnccc12)c1ccc(F)s1 and report it.
Reply: < 100 nM

Query: Find the recorded Ki belonging to CNCCC(Oc1cccc2ncccc12)c1ccc(C(F)(F)F)nc1 (stereo not shown) and report it.
Reply: ≥ 3000 nM

Query: Find the recorded Ki belonging to CNCC[C@@H](Oc1cccc2cnccc12)c1ccsc1 and report it.
Reply: 100 to 500 nM

Query: Find the recorded Ki belonging to CNCCC(Oc1cccc2ncccc12)c1nc(C)cs1 (stereo not shown) and report it.
Reply: 100 to 500 nM
